// melting point lookup, one value per entry

Some molecules with known melting point results, for comparison:
[
  {
    "molecule": "CS(=O)c1ccc(-n2cnc3ccc(-c4nnc(CCc5cccc(C(F)(F)F)c5)o4)cc32)cc1 (stereo unspecified)",
    "result": "169 to 170 °C"
  },
  {
    "molecule": "Cc1noc(NS(=O)(=O)c2ccccc2-c2ccc(-c3ncccn3)cc2)c1C",
    "result": "> 210 °C"
  },
  {
    "molecule": "O=c1[nH]c2c(I)c(Br)c(Br)c(I)c2[nH]c1=O",
    "result": "> 350 °C"
  }
]

Inquiry: melting point for COc1ccc(C2=NN(CC(=O)c3ccccc3)C(=O)[C@H]3CCCC[C@@H]23)cc1OC (relative stereo) ?
Reply text: 133 to 135 °C

Inquiry: melting point for O=C(NC1CCCCC1)Oc1ccccc1-c1ccccc1 ?
Reply text: 119 to 121 °C

Inquiry: melting point for CCOc1cc2nc(S(C)(=O)=O)[nH]c2cc1OCC ?
Reply text: 182 to 184 °C

Inquiry: melting point for CC(C)COc1ccc(C(=O)O)cc1[N+](=O)[O-] ?
Reply text: 184 to 186 °C

Inquiry: melting point for CCCNc1nc(C#N)c(C#N)nc1-c1cccc(Cl)c1 ?
Reply text: 120 to 121 °C

Inquiry: melting point for CC(C)n1nc(-c2cc(C(=O)NCc3ccccn3)cnc2-c2ccccc2)ccc1=O ?
Reply text: 193 to 194 °C

Inquiry: melting point for Cc1oc(-c2ccccc2)nc1COc1ccc2cc(CC3SC(=O)NC3=O)oc2c1 (stereo unspecified) ?
Reply text: 179 to 180 °C

Inquiry: melting point for O=C(N[C@H](Cc1cccc(OCC(F)(F)F)c1)[C@@H](O)c1ccc(F)cc1)c1ccc(F)c2ccccc12 (racemic) ?
Reply text: 192 to 193 °C

Inquiry: melting point for CCCCc1nc(NC(=N)N)sc1-c1cccc([N+](=O)[O-])c1 ?
Reply text: 140 to 142 °C

---

// melting point lookup, one value per entry

Some molecules with known melting point results, for comparison:
[
  {
    "molecule": "CC(O)Cc1cc([N+](=O)[O-])cc(N)c1N (centres undefined)",
    "recorded endpoint": "melting point",
    "result": "174 °C"
  },
  {
    "molecule": "CCc1nc2c(N)nc3cc(OS(C)(=O)=O)ccc3c2n1CCOc1ccccc1",
    "recorded endpoint": "melting point",
    "result": "213 to 214 °C"
  },
  {
    "molecule": "Cc1ccc2c(c1)c(=O)c(CO)cn2C",
    "recorded endpoint": "melting point",
    "result": "171 to 173 °C"
  },
  {
    "molecule": "CCCCCNC(=O)Nc1ccccc1C(=O)NCC1CCN(C(c2ccccc2)c2ccccc2)CC1",
    "recorded endpoint": "melting point",
    "result": "178 to 180 °C"
  },
  {
    "molecule": "Cc1cc2[nH]c3cc(Cl)ncc3c(=O)n2n1",
    "recorded endpoint": "melting point",
    "result": "> 300 °C"
  }
]

Inquiry: melting point for COc1ccc(-c2cn(C)cc(-c3ccccc3)c2=O)cc1OC ?
Reply text: 154 to 157 °C

Inquiry: melting point for Cn1c(COc2ccc(CC3SC(=O)N(C(c4ccccc4)(c4ccccc4)c4ccccc4)C3=O)cc2)nc2ccc(Sc3ccccc3)nc21 (centres undefined) ?
Reply text: 90 to 95 °C

Inquiry: melting point for CC(=O)c1ccc2c(c1)Cc1cc(C#N)ccc1-2 ?
Reply text: 182 to 188 °C

Inquiry: melting point for NC(=O)C1=NN(c2cccc(COCC(F)(F)C(F)(F)F)c2)C(c2ccccc2F)N1 (centres undefined) ?
Reply text: 151 to 153 °C
